- experiment: in vitro
- recorded.conditions: human, HFF-1 cells
metric: log10 of CC50 (log10 of the value in µM)

compound: COc1ccc(C(=O)N2CCOCC2)cc1S(=O)(=O)N(Cc1ccc(F)cc1)Cc1ccc(C(F)(F)F)nc1 [DNDI0003389644]
endpoint.value: 1.57

compound: O=S(=O)(c1cc(N2CCOCC2)ccc1OC(F)F)N(Cc1ccc(F)cc1)Cc1ccc(F)cc1 [DNDI0003389647]
endpoint.value: 1.58

compound: COc1ccc(C(=O)N2CCN(C)CC2)cc1S(=O)(=O)N(Cc1ccc(F)cc1)Cc1ccc(F)cc1 [DNDI0003371173]
endpoint.value: 0.62

compound: COc1ccc(Cl)cc1S(=O)(=O)N(Cc1ccccc1)C(CO)c1ccc(F)cc1 (stereo not shown) [DNDI0003388149]
endpoint.value: 0.10

compound: COc1ccc(CN(Cc2ccc(F)cc2)S(=O)(=O)c2cc(F)ccc2OCC[N+](C)(C)CC(=O)O)cc1 [DNDI0003389931]
endpoint.value: 1.79

compound: O=S1(=O)NCNc2cc(Cl)c(S(=O)(=O)N(Cc3ccccc3)Cc3ccccc3)cc21 [DNDI0003425512]
endpoint.value: 1.47
